- Tested on: biotinyl-Ile-oxazolone
- test.protocol: self-aminoacylation, catalytic enhancement (BIO) (fold over background); higher = more active; k-Seq, kA / k0A0; sequences stand for … in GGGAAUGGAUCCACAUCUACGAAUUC…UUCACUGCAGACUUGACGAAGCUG
Fewer inactive variants are shown than the library holds.
measure: self-aminoacylation

1. CUACUUCCAACAGUCGGUCUG [Fam1A.1 aminoacylation ribozyme variant] ... 0.911
2. UUACUUCAAACAAUCGGACUG [Fam1A.1 aminoacylation ribozyme variant] ... 1.08
3. AUUACCCUGGCCAUCGAGUGG [Fam2.1 aminoacylation ribozyme variant] ... 1.26
4. AUUACCCUGAUCACCGAGUGA [Fam2.1 aminoacylation ribozyme variant] ... 3.08
5. AAGUUUGCUAAUAGUUGCAAC [Fam3.1 aminoacylation ribozyme variant] ... 1.06
6. AAGUGUGCUAAUAGUCGCACG [Fam3.1 aminoacylation ribozyme variant] ... 1.19
7. AUUCACGUAGGUCCUCGGGUG [Fam2.2 aminoacylation ribozyme variant] ... 5.5
8. CCAAACUUCAAACAAUCGGUC [Fam1B.1 aminoacylation ribozyme variant] ... 1.35
9. AUGUUUGCUAAUCGUCGCAAG [Fam3.1 aminoacylation ribozyme variant] ... 1.32
10. AGUACCCUGGUCAUUGAGUGA [Fam2.1 aminoacylation ribozyme variant] ... 3.86
11. AUUCACCUAGGUCAUACGGUG [Fam2.2 aminoacylation ribozyme variant] ... 4.38
12. AUUCUCCUAGGUGAUCGGGUG [Fam2.2 aminoacylation ribozyme variant] ... 3.17
13. GUUCACCUAGGUCAUCGGAUG [Fam2.2 aminoacylation ribozyme variant] ... 0.815
14. CUACUUCAACGAAUCGGUCUG [Fam1A.1 aminoacylation ribozyme variant] ... 0.847
15. AUUAUCCUGGUAAUCGAGUGA [Fam2.1 aminoacylation ribozyme variant] ... 5.94
16. CCAGACUUCAGGCAAUCGGUC [Fam1B.1 aminoacylation ribozyme variant] ... 1.45
17. AUUACCCCGGUCAUCGAGGGA [Fam2.1 aminoacylation ribozyme variant] ... 1.15
18. AAGUUUAUUAAUAGUCGCAAG [Fam3.1 aminoacylation ribozyme variant] ... 1.74
19. CCACACUUUAAGCAAUAGGUC [Fam1B.1 aminoacylation ribozyme variant] ... 0.619
20. CUUCUUCAAACAAGCGGUCUG [Fam1A.1 aminoacylation ribozyme variant] ... 1.09
21. CUACUUCCAACAAUCGGUGUG [Fam1A.1 aminoacylation ribozyme variant] ... 0.97
22. AAGUUUCCUAAUCGUCGCAAG [Fam3.1 aminoacylation ribozyme variant] ... 0.879
23. AUUAUCCUGGGCAUCGAGUGA [Fam2.1 aminoacylation ribozyme variant] ... 3.07
24. GUUCAUCUAGGUCAUCGGGUG [Fam2.2 aminoacylation ribozyme variant] ... 4.19
25. AUUCAACUAGGUCAACGGGUG [Fam2.2 aminoacylation ribozyme variant] ... 2.4
26. AUUCACCUAGGUCUUUGGGUG [Fam2.2 aminoacylation ribozyme variant] ... 4.28
27. AUUCGCCUAGGUCACCGGGUG [Fam2.2 aminoacylation ribozyme variant] ... 4.4
28. AUUACCCUGGUCAACGCGUGA [Fam2.1 aminoacylation ribozyme variant] ... 4.65
29. AAGUUUGCCAAUAGUCGAAAG [Fam3.1 aminoacylation ribozyme variant] ... 1.05
30. CUACUGCAAACAAUGGGUCUG [Fam1A.1 aminoacylation ribozyme variant] ... 1.25
31. CUACUUCAAACCACCGGUCUG [Fam1A.1 aminoacylation ribozyme variant] ... 1.03
32. AGACACUUCAAGCAAUCGGUC [Fam1B.1 aminoacylation ribozyme variant] ... 2.8
33. CGACACUUCAAGCAAACGGUC [Fam1B.1 aminoacylation ribozyme variant] ... 0.814
34. AAGUUUGCUAAAAGUCGCAAC [Fam3.1 aminoacylation ribozyme variant] ... 1.08
35. AUAACCCUGGUCAUCGAGAGA [Fam2.1 aminoacylation ribozyme variant] ... 1.01
